Where these numbers come from: PubChem BioAssay (NCATS)

target: Cytochrome P450 2C19 (Homo sapiens); experiment: qHTS Assay for Inhibitors and Substrates of Cytochrome P450 2C19 (AID 899); conditions: recombinant CYP2C19, luciferin-H EGE luminescence; series mostly up to 57.1 µM; also: nearly all actives have a fitted effect of over 60% in size
Records with an inconclusive call do not appear. Calls of active or inactive are those of the source. Calls follow the shape of the dose curve; as a rule, active = well fitted inhibition curve with a large enough effect; inconclusive = small, poorly fitted or top-dose-only effect; inactive = no such curve, though single readings can be large or run the other way.
// one of active, inactive, no free text

| MOLECULE | CAT |
| --- | --- |
| CC(C)C[C@@H](CC(=O)N[C@@H](CCC(=O)O)CC(=O)O)NC(=O)[C@@H]1CNCC[C@H]1NC(=O)C[C@@H](NC(=O)C[C@H](CO)NC(=O)[C@@H]1CCCC[C@H]1N)C(C)C | inactive |

Assay result, entry COc1cc(/C=C\C(=O)N2CCCCC2=O)cc(OC)c1OC — outcome?
inactive

Assay result, entry NCCC[C@@H](CC(=O)N[C@@H]1CCNC[C@H]1C(=O)N[C@H](CC(=O)N[C@@H](CCC(=O)O)CC(=O)O)Cc1c[nH]c2ccccc12)NC(=O)C[C@H](CO)NC(=O)[C@@H]1CCCC[C@H]1N — outcome?
inactive

Assay result, entry C=C(CO)[C@H]1Cc2c(ccc3c(=O)c4c(oc23)COc2cc(OC)c(OC)cc2-4)O1 — outcome?
inactive

Assay result, entry CC(C)[C@@H](CC(=O)N[C@@H]1CCNC[C@H]1C(=O)N[C@H](CC(=O)N[C@@H](CCC(=O)O)CC(=O)O)Cc1ccccc1)NC(=O)C[C@H](Cc1c[nH]c2ccccc12)NC(=O)[C@@H]1CCCC[C@H]1N — outcome?
inactive

Assay result, entry O=C(Nc1ccc2ccccc2c1)[C@H]1C[C@@H]1[C@H](NP(=O)(c1ccccc1)c1ccccc1)c1ccccc1 — outcome?
active
